Cited source for all entries: ChEMBL document CHEMBL4321837

- System: MOLM-13
- Measurement notes: Antiproliferative activity against FLT3-ITD-positive human MOLM13 cells assessed as reduction in cell growth after 72 hrs by MTT assay
- Type: functional, cell-based
- Reported conditions: MOLM-13, 72 h
log10 of IC50 overview
# values: log10(IC50), units nM

[
  {
    "Substance smiles": "CCCCCCN(C)C1CCN(c2ccc(Nc3ncc(C)c(-c4cnn(C(C)C)c4)n3)cc2F)CC1",
    "log10 of IC50": 2.32
  },
  {
    "Substance smiles": "Cc1cnc(Nc2ccc(N3CCC(N(C)CCCO)CC3)c(F)c2)nc1-c1cnn(C(C)C)c1",
    "log10 of IC50": 1.91
  },
  {
    "Substance smiles": "Cc1cnc(Nc2ccc(N3CCC(N(C)CCN4CCCCC4)CC3)c(F)c2)nc1-c1cnn(C(C)C)c1",
    "log10 of IC50": 2.23
  }
]

Quick check: log10 of IC50 of `CC(C)n1cc(-c2nc(Nc3ccc(N4CCN(C)CC4)c(F)c3)ncc2F)cn1` ?
2.97

Requested read-out: log10 of IC50. Entry: `CCN1CCN(c2ccc(Nc3ncc(F)c(-c4cnn(C(C)C)c4)n3)c(F)c2)CC1`
2.93

* * *

Measured Activity, listed per entry.
- Study target: Tyrosine-protein kinase JAK2 (Homo sapiens, UniProt O60674)
- Sequence (O60674 whole entry): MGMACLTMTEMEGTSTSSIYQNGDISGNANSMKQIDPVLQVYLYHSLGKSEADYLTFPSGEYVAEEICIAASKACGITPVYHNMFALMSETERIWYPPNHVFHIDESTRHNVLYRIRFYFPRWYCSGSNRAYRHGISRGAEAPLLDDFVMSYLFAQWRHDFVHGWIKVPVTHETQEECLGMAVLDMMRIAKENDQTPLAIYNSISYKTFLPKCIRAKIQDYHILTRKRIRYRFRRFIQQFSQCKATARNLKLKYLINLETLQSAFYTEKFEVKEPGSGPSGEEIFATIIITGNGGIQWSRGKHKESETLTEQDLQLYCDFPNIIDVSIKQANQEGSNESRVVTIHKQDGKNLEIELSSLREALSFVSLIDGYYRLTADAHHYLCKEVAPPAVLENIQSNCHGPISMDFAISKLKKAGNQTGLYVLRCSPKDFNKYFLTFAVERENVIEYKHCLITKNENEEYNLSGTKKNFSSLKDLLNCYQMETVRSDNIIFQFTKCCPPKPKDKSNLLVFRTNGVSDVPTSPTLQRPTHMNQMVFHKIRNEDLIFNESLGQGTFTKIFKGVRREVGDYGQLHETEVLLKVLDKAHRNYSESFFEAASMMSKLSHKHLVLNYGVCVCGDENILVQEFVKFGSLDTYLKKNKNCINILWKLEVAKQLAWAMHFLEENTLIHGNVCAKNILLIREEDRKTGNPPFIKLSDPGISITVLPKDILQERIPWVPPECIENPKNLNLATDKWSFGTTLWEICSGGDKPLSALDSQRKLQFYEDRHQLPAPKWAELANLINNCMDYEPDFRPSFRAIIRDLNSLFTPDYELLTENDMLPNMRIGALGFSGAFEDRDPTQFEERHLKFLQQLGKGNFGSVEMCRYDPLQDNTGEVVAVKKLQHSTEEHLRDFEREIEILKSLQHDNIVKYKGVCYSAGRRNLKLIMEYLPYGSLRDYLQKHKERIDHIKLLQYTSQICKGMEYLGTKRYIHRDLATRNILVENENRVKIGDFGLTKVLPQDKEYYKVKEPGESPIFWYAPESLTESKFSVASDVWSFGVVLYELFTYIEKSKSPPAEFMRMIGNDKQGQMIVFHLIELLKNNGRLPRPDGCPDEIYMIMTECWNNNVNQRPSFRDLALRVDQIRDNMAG
- Measurement notes: Inhibition of human JAK2 (808 to end residues) assessed as residual activity at 100 nM using KTFCGTPEYLAP as substrate after 40 mins in presence of [gamma33P]-ATP by scintillation counting based radiometric assay relative to control
Write the value in % as a bare number.

[
  {
    "Compound": "CCCN(CCN1CCOCC1)C1CCN(c2ccc(Nc3ncc(C)c(-c4cnn(C(C)C)c4)n3)cc2F)CC1",
    "Measure unit": "%",
    "Activity": 8
  },
  {
    "Compound": "Cc1cnc(Nc2ccc(N3CCC(N(C)CCN4CCN(C)CC4)CC3)c(F)c2)nc1-c1cnn(C(C)C)c1",
    "Measure unit": "%",
    "Activity": 5
  }
]

Record `CCN(CCN1CCOCC1)C1CCN(c2ccc(Nc3ncc(C)c(-c4cnn(C(C)C)c4)n3)cc2F)CC1` : what is its Activity with Tyrosine-protein kinase JAK2 (Homo sapiens, UniProt O60674)?
11

Record lookup: for Tyrosine-protein kinase JAK2 (Homo sapiens, UniProt O60674), what Activity belongs to `Cc1cnc(Nc2ccc(N3CCC(N(C)CCCO)CC3)c(F)c2)nc1-c1cnn(C(C)C)c1` ?
5

Param readout = Activity; param system = Tyrosine-protein kinase JAK2 (Homo sapiens, UniProt O60674); param query = `Cc1cnc(Nc2ccc(N3CCC(N(C)CCO)CC3)c(F)c2)nc1-c1cnn(C(C)C)c1` ; response: value
0

Form field: Activity recorded for `CCCCN1CCC(n2cc(-c3nc(Nc4ccc(N5CCN(C)CC5)c(F)c4)ncc3F)cn2)CC1` with Tyrosine-protein kinase JAK2 (Homo sapiens, UniProt O60674) (enter value)
19

* * *

- Study target: Vascular endothelial growth factor receptor 1 (Homo sapiens)
- Sequence (P17948 whole entry): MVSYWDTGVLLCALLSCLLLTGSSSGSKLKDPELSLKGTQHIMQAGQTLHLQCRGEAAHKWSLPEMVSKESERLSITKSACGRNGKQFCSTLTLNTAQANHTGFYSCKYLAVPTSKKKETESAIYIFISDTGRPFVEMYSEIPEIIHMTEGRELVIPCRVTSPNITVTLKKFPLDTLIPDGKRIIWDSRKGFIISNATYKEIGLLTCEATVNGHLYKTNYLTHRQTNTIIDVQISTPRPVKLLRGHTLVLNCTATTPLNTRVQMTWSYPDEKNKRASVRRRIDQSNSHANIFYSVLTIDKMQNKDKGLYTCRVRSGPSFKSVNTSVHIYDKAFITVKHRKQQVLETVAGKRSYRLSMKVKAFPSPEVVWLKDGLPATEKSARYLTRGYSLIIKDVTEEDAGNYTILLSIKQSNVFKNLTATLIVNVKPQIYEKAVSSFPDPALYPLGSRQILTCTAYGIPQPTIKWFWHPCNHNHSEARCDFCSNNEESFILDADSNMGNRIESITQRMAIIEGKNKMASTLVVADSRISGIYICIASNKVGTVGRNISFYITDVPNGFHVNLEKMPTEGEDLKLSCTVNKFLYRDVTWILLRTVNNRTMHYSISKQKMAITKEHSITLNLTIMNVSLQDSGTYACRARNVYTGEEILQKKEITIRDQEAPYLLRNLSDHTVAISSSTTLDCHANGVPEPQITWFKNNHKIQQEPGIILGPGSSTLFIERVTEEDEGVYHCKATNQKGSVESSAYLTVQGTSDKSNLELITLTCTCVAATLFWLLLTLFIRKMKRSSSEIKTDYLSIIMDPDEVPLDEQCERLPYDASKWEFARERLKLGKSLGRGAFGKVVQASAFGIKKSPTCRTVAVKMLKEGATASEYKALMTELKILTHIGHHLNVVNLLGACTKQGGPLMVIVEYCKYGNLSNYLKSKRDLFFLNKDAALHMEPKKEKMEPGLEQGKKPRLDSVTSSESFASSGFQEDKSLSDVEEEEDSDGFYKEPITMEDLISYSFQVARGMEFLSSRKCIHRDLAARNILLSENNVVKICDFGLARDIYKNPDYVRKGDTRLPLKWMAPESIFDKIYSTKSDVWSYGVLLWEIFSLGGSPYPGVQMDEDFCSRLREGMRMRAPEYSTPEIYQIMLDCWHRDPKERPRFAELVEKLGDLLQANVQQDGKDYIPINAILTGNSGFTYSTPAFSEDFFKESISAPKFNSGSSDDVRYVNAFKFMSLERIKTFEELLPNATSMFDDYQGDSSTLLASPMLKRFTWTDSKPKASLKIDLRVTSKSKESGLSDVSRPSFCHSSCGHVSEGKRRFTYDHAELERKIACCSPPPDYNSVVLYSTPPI
- Measurement notes: Inhibition of recombinant human FLT1 (783 to end residues) using KKKSPGEYVNIEF as substrate incubated for 40 mins in presence of [gamma33P]-ATP by scintillation counting based radiometry assay
Property measured: pIC50
Just so you know, pIC50 here is -log10 of the concentration in molar units; reply with that number alone.

What reported pIC50 corresponds to `Cc1cnc(Nc2ccc(N3CCC(N(C)CCO)CC3)c(F)c2)nc1-c1cnn(C(C)C)c1` on Vascular endothelial growth factor receptor 1 (Homo sapiens)?
7.66
